Measured CL/F, listed per entry for reference.
# Run description: Pharmacokinetics assay in rats after intragastrical administration (LC/MS/MS of plasma)
# Assay type: in vivo
# Run parameters: both sexes, rat, plasma, po, SD rats, 2 mg/kg, read-out: Clearance CLz/F

| Compound | CL/F |
| --- | --- |
| C[C@@H]1CN(C(=O)Nc2ccc(F)c(C#N)c2)Cc2c(C(=O)N[C@H](C)C(F)(F)F)nnn21 [Example 44] | 2.99 mL/min/kg |
| C[C@H]1Cn2ncc(C(=O)N[C@H](C)C(F)(F)F)c2CN1C(=O)Nc1ccc(F)c(F)c1 [Example 7] | 2.63 mL/min/kg |
| C[C@@H](NC(=O)c1cnn2c1CN(C(=O)Nc1cc(F)c(F)c(F)c1)CC2)C(F)(F)F [Example 4] | 5.08 mL/min/kg |
| C[C@@H](NC(=O)c1ncn2c1CN(C(=O)Nc1cc(F)c(F)c(F)c1)CC2)C(F)(F)F [Example 1] | 2.39 mL/min/kg |
| C[C@@H](NC(=O)c1cnn2c1CN(C(=O)Nc1ccc(F)c(F)c1)CC2)C(F)(F)F [Example 2] | 4 mL/min/kg |
